Tested on: K4 kissing-loop RNA reporter;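 note: bound reporter read as fluorescence of individual clusters on recovered sequencing chips by microscopy, with normalized cluster intensities fitted with a binding model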
assayInfo: apparent KD of K4 kissing-loop reporter; higher = weaker reporter binding
conditionSummary: Eterna round: R107; input ligand: tryptophan 2.4 mM
reportedMetric: apparent KD of K4 kissing-loop reporter (nM)
Use nM as the unit, but write only the number.

Give apparent KD of K4 kissing-loop reporter only, for UGGAUAUAGUGAUGUUAUAUAGAGAUGGAUACCAGCAGAGAGAAUUGCCCUUGGCAGCCGAAAGAAGUAUCAUUAGAGAAGAAUG [ExTheophyl.Ai] , using K4 kissing-loop RNA reporter data.
210

Give the observed apparent KD of K4 kissing-loop reporter of `GGCAUGCGUAGAGUGAUGUUCUAAGAUGAUACCAGUGCGGAAACGCACCCUUGGCAGCAUCUGACGAGCAUGCCGGCGAAAGCCU` for K4 kissing-loop RNA reporter.
771

Fetch value of apparent KD of K4 kissing-loop reporter on K4 kissing-loop RNA reporter for AGAGUUAUGCGAGGAUAUGCAGUUAGUACUCAAAGAGUACUAACGCAGAGUGAUGUUCUGUGAAAUGCAGAAGGUGCAUAACUCA [Omei KL FMN B SS B v5] .
289
